# Test system: SW872;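 also: growth inhibition of SW872 cells, read out by a viability assay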
# assay_name: cells
# Type: functional, cell-based, Homo sapiens
# setup_conditions: sw872
# Description: SANGER: Inhibition of human SW872 cell growth in a cell viability assay.
pIC50: −log10 of the molar value.
recorded_metric: pIC50

{"columns": ["biosequence", "recorded_metric", "assay_value"],
 "data": [
  ["CISPLATIN", "pIC50", 4.39],
  ["BLEOMYCIN", "pIC50", 5.46]
]}

====

# Test system: HGC-27;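 also: growth inhibition of human HGC-27 cells, read out in a cell viability assay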
# assay_name: cells
# Assay type: functional, cell-based, Homo sapiens
# setup_conditions: Homo sapiens, HGC-27
# Description: SANGER: Inhibition of human HGC-27 cell growth in a cell viability assay.
pIC50: −log10 of the molar value.
pIC50 values, listed per item
recorded_metric: pIC50

{"columns": ["compound", "recorded_metric", "qualifier", "assay_value"],
 "data": [
  ["COc1cccc2c1C(=O)c1c(O)c3c(c(O)c1C2=O)C[C@@](O)(C(=O)CO)C[C@@H]3O[C@H]1C[C@H](N)[C@H](O)[C@H](C)O1 [DOXORUBICIN]", "pIC50", "=", 7.87],
  ["Nc1ccn([C@@H]2O[C@H](CO)[C@@H](O)C2(F)F)c(=O)n1 [GEMCITABINE]", "pIC50", "=", 8.02],
  ["CN(C)C(=N)NC(=N)N [METFORMIN]", "pIC50", "<", 1.70],
  ["Cc1cn(-c2cc(NC(=O)c3ccc(C)c(Nc4nccc(-c5cccnc5)n4)c3)cc(C(F)(F)F)c2)cn1 [NILOTINIB]", "pIC50", "<", 5.70],
  ["CC(C)c1ccccc1Cc1cc(C(=O)Nc2ccc(S(=O)(=O)c3ccccc3C(C)(C)C)cc2)c(O)c(O)c1O", "pIC50", "=", 6.85]
]}

====

# Tested on: DK-MG;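 also: growth inhibition of DK-MG cells, read out with a cell viability assay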
# assay_name: cells
# Format: functional, cell-based, Homo sapiens
# setup_conditions: dk-mg
# Description: SANGER: Inhibition of human DK-MG cell growth in a cell viability assay.
pIC50: −log10 of the molar value.
recorded_metric: pIC50

{"columns": ["biosequence", "experimental_system", "assay_value"],
 "data": [
  ["CISPLATIN", "DK-MG", 3.86]
]}

====

# Test system: GMS-10;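 also: growth inhibition of GMS-10 cells, read out as cell viability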
# assay_name: cells
# Type: functional, cell-based, Homo sapiens
# setup_conditions: Homo sapiens, GMS-10
# Description: SANGER: Inhibition of human GMS-10 cell growth in a cell viability assay.

{"columns": ["compound", "IC50"],
 "data": [
  ["CO[C@H]1C[C@@H]2CC[C@@H](C)[C@@](O)(O2)C(=O)C(=O)N2CCCC[C@H]2C(=O)O[C@H]([C@H](C)C[C@@H]2CC[C@@H](OC(=O)C(C)(CO)CO)[C@H](OC)C2)CC(=O)[C@H](C)/C=C(\\C)[C@@H](O)[C@@H](OC)C(=O)[C@H](C)C[C@H](C)/C=C/C=C/C=C/1C", "> 200 nM"],
  ["CC1(C)CNc2cc(NC(=O)c3cccnc3NCc3ccncc3)ccc21", "> 2000 nM"],
  ["CS(=O)(=O)c1ccc(C(=O)Nc2ccc(Cl)c(-c3ccccn3)c2)c(Cl)c1", "> 10000 nM"],
  ["CCN(CC)CCCCNc1ncc2cc(-c3cc(OC)cc(OC)c3)c(NC(=O)NC(C)(C)C)nc2n1", "> 2000 nM"],
  ["Nc1cccc2c1CN(C1CCC(=O)NC1=O)C2=O (stereo not given) [LENALIDOMIDE]", "> 5000 nM"]
]}

====

# System: SW 1116
# assay_name: cells
# Type: functional, cell-based, Homo sapiens
# setup_conditions: Homo sapiens, SW 1116
# Description: SANGER: Inhibition of human SW1116 cell growth in a cell viability assay.

{"columns": ["cpd_smiles", "IC50"],
 "data": [
  ["CCN(CC)CCCCNc1ncc2cc(-c3cc(OC)cc(OC)c3)c(NC(=O)NC(C)(C)C)nc2n1", "> 2000 nM"]
]}
